The entries below come with measured % Inhibition (decrease in absorbance compared to buffer alone) values attached.
assay: Inhibition of hydroxyl radical production, Cu(II)/ascorbic acid deoxyribose/TBA assay, Example 10; format: biochemical; conditions: compound:copper 2:1; CuCl2 10 μM
No end group written: not given here.
measurementKind: % Inhibition (decrease in absorbance compared to buffer alone) (%)

1) L-Ala L-His L-Lys L-Ser L-Glu L-Val L-Ala L-His L-Arg L-Phe L-Lys (AHKSEVAHRFK; listed as Homo sapiens): 95.1
2) L-His L-Lys L-Ser L-Glu L-Val L-Ala L-His L-Arg L-Phe L-Lys (HKSEVAHRFK; listed as Homo sapiens) [His Lys Ser Glu Val Ala His Arg Phe Lys]: 46.6
3) Acetylated-L-Asp L-Ala L-His L-Lys L-Ser L-Glu L-Val L-Ala L-His L-Arg L-Phe L-Lys (Ac-DAHKSEVAHRFK; listed as Homo sapiens): 27.5
4) L-Asp L-Ala L-His L-Lys L-Ser L-Glu L-Val L-Ala L-His L-Arg L-Phe L-Lys (DAHKSEVAHRFK; listed as Homo sapiens): 95.8
